I'd appreciate it if you could supply % Blocking values for the items below.
assayed.system: T1, human chemokine (C-C motif) receptor 8 (CCR8) (human, UniProt P51685 1-355)
T1 construct: also called hCCR8
T1 sequence (P51685 whole entry): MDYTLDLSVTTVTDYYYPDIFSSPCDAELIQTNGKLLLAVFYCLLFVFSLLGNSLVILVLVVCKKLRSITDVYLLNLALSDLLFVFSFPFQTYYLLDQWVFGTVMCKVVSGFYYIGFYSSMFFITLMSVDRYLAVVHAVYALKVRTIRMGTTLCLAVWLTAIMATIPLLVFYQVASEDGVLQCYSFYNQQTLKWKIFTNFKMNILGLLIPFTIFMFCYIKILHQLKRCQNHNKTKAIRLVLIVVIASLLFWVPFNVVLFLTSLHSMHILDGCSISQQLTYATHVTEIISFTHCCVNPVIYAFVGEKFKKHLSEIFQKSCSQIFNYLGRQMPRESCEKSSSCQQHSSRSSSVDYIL
test.description: flow cytometry blocking, human PBMC, CD3+ gate; competitor PE-AB14
Numbers only here, please. The scale is %.

Query :: # lookup: % Blocking of anti-CCR8 monoclonal antibody AB8 (antibody, V domains shown, Hybridoma monoclonal; also called antibody 8; clone 8) VH: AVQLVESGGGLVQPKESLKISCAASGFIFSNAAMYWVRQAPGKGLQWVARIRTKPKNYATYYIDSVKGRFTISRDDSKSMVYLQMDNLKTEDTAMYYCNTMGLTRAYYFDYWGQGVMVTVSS VL: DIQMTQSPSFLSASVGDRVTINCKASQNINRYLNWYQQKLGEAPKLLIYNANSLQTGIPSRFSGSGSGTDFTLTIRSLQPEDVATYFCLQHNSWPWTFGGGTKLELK
Result :: 98.5

Query :: Consider the binder anti-CCR8 monoclonal antibody AB13 (antibody, V domains shown, Hybridoma monoclonal; also called antibody 13; clone 13) VH: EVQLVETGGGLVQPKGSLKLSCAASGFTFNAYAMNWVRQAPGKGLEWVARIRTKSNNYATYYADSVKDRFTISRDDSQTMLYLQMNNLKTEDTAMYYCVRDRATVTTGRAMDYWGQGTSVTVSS VL: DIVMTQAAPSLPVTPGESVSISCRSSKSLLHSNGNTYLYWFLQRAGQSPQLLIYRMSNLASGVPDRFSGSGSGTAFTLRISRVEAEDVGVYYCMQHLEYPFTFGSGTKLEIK and give its measured % Blocking.
Result :: 39.4

Query :: Request the reported % Blocking associated with anti-CCR8 monoclonal antibody AB10 (antibody, V domains shown, Hybridoma monoclonal; also called antibody 10; clone 10) VH: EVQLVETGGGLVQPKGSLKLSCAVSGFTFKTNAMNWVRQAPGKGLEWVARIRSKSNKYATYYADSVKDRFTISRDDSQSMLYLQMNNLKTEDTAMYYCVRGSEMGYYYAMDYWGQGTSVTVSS VL: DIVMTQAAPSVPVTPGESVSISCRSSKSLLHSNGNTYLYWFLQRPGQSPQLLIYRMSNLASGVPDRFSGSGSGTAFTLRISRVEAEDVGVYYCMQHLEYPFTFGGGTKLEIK
Result :: 96.2

Query :: Look up % Blocking for this binder: anti-CCR8 monoclonal antibody AB6 (antibody, V domains shown, also called antibody 6; clone 6) VH: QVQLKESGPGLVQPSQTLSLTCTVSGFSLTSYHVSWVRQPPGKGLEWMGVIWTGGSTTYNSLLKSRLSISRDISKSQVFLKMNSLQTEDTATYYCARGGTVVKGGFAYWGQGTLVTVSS VL: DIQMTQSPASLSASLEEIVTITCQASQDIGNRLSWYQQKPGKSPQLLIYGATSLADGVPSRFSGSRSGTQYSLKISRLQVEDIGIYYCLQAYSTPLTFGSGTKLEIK
Result :: 10.2
